system: MAGL (Homo sapiens, UniProt Q99685)
Sequence (Q99685 1-303): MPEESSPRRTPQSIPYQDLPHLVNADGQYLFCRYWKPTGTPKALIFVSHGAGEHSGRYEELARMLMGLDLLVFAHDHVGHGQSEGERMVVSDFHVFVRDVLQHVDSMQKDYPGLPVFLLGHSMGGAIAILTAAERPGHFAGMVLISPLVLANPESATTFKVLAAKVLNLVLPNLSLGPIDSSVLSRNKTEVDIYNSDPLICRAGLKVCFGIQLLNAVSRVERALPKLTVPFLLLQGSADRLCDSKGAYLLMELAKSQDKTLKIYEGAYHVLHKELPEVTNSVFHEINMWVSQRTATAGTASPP
protocolDetails: 2-AG assay: MAGL inhibitory activity by hydrolysis of 2-arachidonoylglycerol to arachidonic acid, followed by mass spectrometry
Format: biochemical
experimentalConditions: 15 min preincubation, 30 min reaction at RT, 8 μM 2-arachidonoylglycerol
pIC50: −log10 of the molar value.
parameter: pIC50

# compound, system, pIC50
measured = [
    ("CS(=O)(=O)c1ccc(C[C@@H]2CCC3(C2)CN(C(=O)N2CC4(COCC(=O)N4)C2)C3)cc1 (single isomer, unassigned)", "MAGL (Homo sapiens, UniProt Q99685)", 7.10),
    ("O=C1COCC2(CN(C(=O)N3CC4(CC(Cc5ccc(S(=O)(=O)C(F)(F)F)cc5)C4)C3)C2)N1", "MAGL (Homo sapiens, UniProt Q99685)", 9.82),
    ("N#Cc1ccc(OC2CC3(C2)CN(C(=O)N2CC4(COCC(=O)N4)C2)C3)cc1C(F)(F)F", "MAGL (Homo sapiens, UniProt Q99685)", 7.16),
]

P = O=C1CCC2(CN(C(=O)N3CC4(CCN(Cc5cc(C(F)(F)F)on5)CC4)C3)C2)N1
Q = O=C1CCC2(CN(C(=O)N3CC4(CC(Cn5cnc(C6(C(F)(F)F)CC6)n5)C4)C3)C2)N1
Could you please tell me which of these two has the higher pIC50: P or Q ? State your choice using its label. Q
(Q: 7.61, P: 6.75)

A = Cn1ncc(CC2CC3(C2)CN(C(=O)N2CC4(COCC(=O)N4)C2)C3)c1C(F)(F)F
B = O=C1NC2(CO1)CN(C(=O)N1CC3(CC(n4cnc(C5CC5)n4)C3)C1)C2
Could you please tell me which of these two has the higher pIC50: A or B ? State your choice using its label. A
(A: 8.39, B: 7.89)

A = O=C1COCC2(CN(C(=O)N3CC4(CC(Cc5cncc(C(F)(F)F)c5)C4)C3)C2)N1
B = O=C1CCC2(CN(C(=O)N3CC4(CCN(Cc5ncc(C(F)F)s5)CC4)C3)C2)N1
Quick one: lower pIC50, A or B ? State your choice using its label. B

P = O=C1COCC2(CN(C(=O)N3CC4(CC(n5cnc(C6CC6)n5)C4)C3)C2)N1
Q = O=C1COCC2(CN(C(=O)N3CC4(CC(Cc5cnc(C(F)(F)F)cn5)C4)C3)C2)N1
R = O=C1NC2(CO1)CN(C(=O)N1CC3(CCN(Cc4cnc(C(F)(F)F)cn4)C3)C1)C2
S = O=C1NCC2(CN(C(=O)N3CC4(CC(Cc5ccc(C(F)(F)F)cc5F)C4)C3)C2)N1
Number of compounds to sort: 4. Sort criterion: pIC50, ascending. // rank by listing labels in the order requested P, Q, R, S
